# System: SK-MEL-5 melanoma
# test_details: NCI-60 one-dose screen, 48 h (100 = growth as untreated, 0 = no growth, -100 = all killed)
# condition_set: 10 µM unless noted
About 83,000 compounds went through this panel and 20% of them were active in at least one assay; those are over-represented in the sample as a whole.
reported_property: growth (%)

>>> measured_value("C[C@]12CC[C@H]3[C@@H](C[C@@H]4SC(Nc5ccccc5)=N[C@@]45C/C(=N/O)CC[C@]35C)[C@@H]1CCC2=O")
84.5
>>> measured_value("Oc1cc(N2CC2)c(O)cc1N1CC1")
-95
>>> measured_value("COC1C(O)CC(OC2CC(Oc3cc4cc5c(c(O)c4c(O)c3C)C(=O)[C@@H](OC3CC(OC4CC(OC6CC(C)(O)C(OC(C)=O)C(C)O6)C(O)C(C)O4)C(O)C(C)O3)[C@H]([C@H](OC)C(=O)[C@@H](O)[C@@H](C)O)C5)OC(C)C2OC(C)=O)OC1C (some centres undefined)")
-93.8
>>> measured_value("C[N+]1(CC#CC[N+]2(C)CCCC2)CCCC1")
101
>>> measured_value("Cc1c(C)c(N)c(C)c(C)c1N")
93
>>> measured_value("COc1ccc2c(c1)c(-c1nc(-c3cn(C)c4ncccc34)cs1)cn2CCCCN1CCOCC1")
14.5
>>> measured_value("O=[P+](O)c1cccnc1")
102
>>> measured_value("Cc1cc2c(cc1-c1ccnc(/C=C/C(=O)O)c1)C(C)(C)CCC2(C)C")
67.9
>>> measured_value("CN1C2CCC1[C@@H](COC(=O)c1ccccc1)[C@@H](O)C2 (some centres undefined)")
112

----------
Below is a list of entries, each paired with its recorded growth value.
# System: SF-295 CNS
# test_details: NCI-60 one-dose screen, 48 h (100 = growth as untreated, 0 = no growth, -100 = all killed)
# condition_set: 10 µM unless noted
This is part of a sample that, as a whole, favours compounds with a hit. Of some 83,000 tested, about 20% had one in any assay.
reported_property: growth (%)

>>> measured_value("Cc1nnc([S-])o1.[Au+].c1ccc([PH+](c2ccccc2)c2ccccc2)cc1")
92.1
>>> measured_value("COC12CC3C4=CCOC5CC(=O)N6c7ccccc7C1(CCN2C4)C6C53 (stereo not given)")
111
>>> measured_value("CCC(Br)(CC)C(=O)NC(N)=O")
97.7
>>> measured_value("C[N+]12CCC34C5=CC(=O)C(=O)C=C5[N+]5(C)C(=O)CC6OCC=C(C1)C(CC32)C6C45 (stereo not given)")
93
>>> measured_value("CCCCOC(N)=O")
105
>>> measured_value("O=P(O)(Nc1ccccc1)Nc1ccccc1")
96.1
>>> measured_value("CC(=O)OC1CC2(O)C(CCC3(C)C(c4ccc(=O)oc4)CCC32O)C2(C)CCC(OC3OC(CO)C(O)C(O)C3O)C=C12 (stereo not given)")
-62.2
>>> measured_value("O=Cc1cn(Cc2ccccc2)c2ccccc12")
99.5
>>> measured_value("Oc1cc(N2CC2)c(O)cc1N1CC1")
15.9
>>> measured_value("N#CC(C#N)=Cc1cccc(F)c1")
105
>>> measured_value("Cc1cc[c-]cc1.Fc1c[c-]c(-c2ccccn2)c(F)c1.[Pt+2].c1ccc([PH+](c2ccccc2)c2ccccn2)cc1")
72
>>> measured_value("C/C=C(/C)C(=O)O[C@H]1CC[C@@]2(C)[C@@H]3CC[C@H]4[C@]5(O)C[C@H](O)[C@@]6(O)[C@@H](CN7C[C@@H](C)CC[C@H]7[C@@]6(C)O)[C@]5(O)C[C@@]42O[C@@]13O")
100
>>> measured_value("CCCN1C(=O)NC(=O)C(CC)(N2C(=O)c3c(F)c(F)c(F)c(F)c3C2=O)C1=O (stereo not given)")
-68.6
>>> measured_value("O=C(NC1=NCC[Se]1)c1ccccc1O")
95.4
>>> measured_value("CC(=O)C(N)Cc1ccccc1 (stereo not given)")
102
>>> measured_value("COc1ccn(C)c(=O)c1C#N")
101
>>> measured_value("O=C1C=C(N2CC2)c2ccccc2C1=O")
23.6
>>> measured_value("C[Se]/C=C1/C(=O)N(c2c(Cl)cccc2Cl)c2ccccc21")
38
>>> measured_value("CCOC(=O)P(=O)(OCC)OCC")
126
>>> measured_value("Nc1ccc2c(c1)Cc1cc(N)ccc1-2")
100
>>> measured_value("C[C@]12CCc3sc(Nc4ccc(OC(F)(F)F)cc4)nc3C1=CC[C@@H]1[C@@H]2CC[C@]2(C)C(=O)CC[C@@H]12")
-2.71
>>> measured_value("CC[C@H](C)[C@H](NC(=O)[C@H]1CCCCN1C)C(=O)N(C)[C@H](CCc1nc(C(=O)N[C@@H](Cc2ccccc2)C[C@H](C)C(=O)O)cs1)C(C)C")
-1.24
>>> measured_value("C=CC1CN2CCC1CC2C(O)c1ccnc2ccccc12 (stereo not given)")
121
>>> measured_value("CC1(C)C=Cc2c(ccc3c2[N+]([O-])=C2C3=C[C@@]34NC(=O)[C@]5(CCCN5C3=O)C[C@@H]4C2(C)C)O1")
52.2
>>> measured_value("Oc1ccccc1C=NCCN=Cc1ccccc1O.[Fe]")
85
>>> measured_value("O=[N+]([O-])c1ccc(CI)cc1")
110
>>> measured_value("O=C1c2ccccc2C(=O)N1N1CC1c1ccccc1 (stereo not given)")
104
>>> measured_value("Cc1ccc(C(=O)O[C@H](C(=O)O)[C@H](OC(=O)c2ccc(C)cc2)C(=O)O)cc1")
118
>>> measured_value("C=CC[PH+](c1ccccc1)c1ccccc1.C=CC[PH+](c1ccccc1)c1ccccc1.[Pt+2].[S-]c1ncccn1.[S-]c1ncccn1")
84.2
>>> measured_value("O=NN1CCCCC1")
119
>>> measured_value("CC(C)CCC1C(=O)NC(=O)NC1=O")
98.4
>>> measured_value("Cc1c2ccncc2c(C)c2c1[nH]c1ccccc12")
-84.7
>>> measured_value("N#CCc1ccc(CC#N)cc1")
100
>>> measured_value("O=S1(=O)OCCO1")
98.3
>>> measured_value("CC[C@H](CC[C@@H](C)[C@H]1CC[C@H]2[C@@H]3CC[C@H]4C[C@]5(CC[C@]4(C)[C@H]3CC[C@]12C)OO[C@](C)(C(F)(F)F)O5)C(C)C")
94.6
